- system-tested: T1, 4H906-bH
- T1 chain: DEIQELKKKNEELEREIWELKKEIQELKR
- test-protocol: two-hybrid library CCNG1;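 further: natural log of median RNA to DNA barcode read ratio; higher means stronger binding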
readout-kind: interaction score

Known results for binders:
In [3]: df
Out[3]:
                                     binder  endpoint_result
0  DKNQELEKKIEELKRENWELEKKIQELKR [4H3414-bH]            -0.25
1  DENQELEKKNEELERKIWELKKEIQELER [4H1449-bH]             -1.2

(A) DEIQELKKEIEELERKNWELKKEIQELKR [4H570-bH]
(B) DEIQELKKEIEELKRKNWELEKEIQELKR [4H626-bH]
Input: Pick one: A or B . Which one has the lower reported interaction score? Pick one; state its label.
Output: B
(B: -0.349, A: 0.224)
